Test: qHTS of pediatric cancer cell lines to identify multiple opportunities for drug repurposing: Primary screen for DAOY cells (AID 1347090); further: nearly all actives have a fitted effect of over 55% in size
Settings: DAOY medulloblastoma viability, CellTiter-Glo luminescence, 48 h; series mostly up to 46 µM
Records with an inconclusive call do not appear. Active and inactive are the calls of the source. The call rests on the fitted dose curve; in most records, active means well fitted cell-killing curve with a large enough effect; inconclusive means small, poorly fitted or top-dose-only effect; inactive means flat fitted curve, though single readings scatter.
One label from this list, please: true (1) for active, false (0) for inactive

{"compound": "C[C@]12CC[C@H]3[C@@H](CCC4=CC(=O)CC[C@@]43C)[C@H]1CC[C@H]2OC(=O)CCC1CCCC1", "groupLabel": "false (0)"}
{"compound": "CCN1CCN(C(=O)Cc2ccc(Nc3ncc(F)c(Nc4ccc(C(=O)Nc5ccccc5Cl)cc4)n3)cc2)CC1", "groupLabel": "true (1)"}
{"compound": "C[C@@H]1CC[C@@]2(OC1)O[C@H]1C[C@H]3[C@@H]4CC=C5C[C@@H](O[C@@H]6O[C@H](CO)[C@@H](O[C@@H]7O[C@@H](C)[C@H](O)[C@@H](O)[C@@H]7O)[C@H](O)[C@@H]6O[C@@H]6O[C@@H](C)[C@H](O)[C@@H](O)[C@@H]6O)CC[C@]5(C)[C@@H]4CC[C@]3(C)[C@@H]1[C@H]2C", "groupLabel": "true (1)"}
{"compound": "C1CCC(NC2CCCCC2)CC1", "groupLabel": "false (0)"}
{"compound": "c1ccc(CCCN2CCN(CCOC(c3ccccc3)c3ccccc3)CC2)cc1", "groupLabel": "true (1)"}
{"compound": "CC(O)CN1CCN(CC(=O)[O-])CCN(CC(=O)[O-])CCN(CC(=O)[O-])CC1.[Gd+3] (stereo not given)", "groupLabel": "false (0)"}
{"compound": "CC[C@@]1(O)C(=O)OCc2c1cc1n(c2=O)Cc2cc3ccccc3nc2-1", "groupLabel": "true (1)"}
{"compound": "Cc1cc(O)ccc1Cl", "groupLabel": "false (0)"}
{"compound": "C[C@]12CCC(=O)C(O)=C1CC[C@@H]1[C@H]3CCC(=O)[C@@]3(C)CC[C@@H]12", "groupLabel": "false (0)"}
{"compound": "CO[C@H]1CCC(O[C@H]2C[C@H]([C@]3(C)CC[C@]4(C[C@H](O)[C@@H](C)[C@@H]([C@@H](C)C=C(C)C(=O)[C@H](C)C[C@H](C)C(=O)O)O4)O3)O[C@]3(O[C@@H]([C@H]4O[C@@](O)(CO)[C@H](C)C[C@H]4C)C[C@H]3C)[C@H]2C)O[C@H]1C (stereo not given in full)", "groupLabel": "true (1)"}

In this assay, the call recorded for C[C@]12CC[C@H](O)CC1=CC[C@H]1[C@H]3CCC(=O)[C@@]3(C)CC[C@@H]12 was what?
true (1)

Each compound tested received a call. Report the one for C#C[C@]1(O)C=C[C@@H]2[C@@H]3CCC4=CC(=O)CC[C@@H]4[C@H]3CC[C@@]21CC .
false (0)

Hey, what did the test say about N#C[C@H](O[C@@H]1O[C@H](CO[C@@H]2O[C@H](CO)[C@H](O)[C@H](O)[C@H]2O)[C@H](O)[C@H](O)[C@H]1O)c1ccccc1 ?
true (1)

Per the assay record, what outcome was assigned to CCOP(=O)(OCC)C(C)NC(=O)N(CCCl)N=O (stereo not given) ?
false (0)

Would you mind telling me which call this test gave C=C[C@@H]1CN2CCC1C[C@H]2[C@H](O)c1ccnc2ccccc12 (stereo not given in full) ?
false (0)
